Taken from PubChem BioAssay.

# PROCEDURE TEXT: serotonin-gated TRPC4 signal block – cell-based, second counter screen, HEK293 TRPC4/5HT1a, Fluo-4, counter-screen for TRPC4 inhibitor project, confirmation (AID 434978)
# CONDITIONS USED: Fluo-4 calcium flux, at 10 µM, serotonin added to trigger calcium flux
Active and inactive are the calls of the source.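 The calls were made as follows: active = primary screen active whose calcium signal fell more than 3 SD beyond the full-serotonin control mean in both duplicate plates; inactive = the rest.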
Bench note: report the call from Yes for active, No for inactive

stdin: Hello, I am checking results. What call was entered for Cc1c(CCOC(=O)c2cccc([N+](=O)[O-])c2)sc[n+]1CC(=O)c1ccccc1 ?
stdout: Yes

stdin: Hey, what did the test say about CC1CCCN1CC#CC(O)(c1ccccc1)c1ccccc1 (configuration not stated) ?
stdout: Yes

stdin: Entry CCOC(=O)C1(CCOC)CCN(C(C)CCc2ccc(OC)cc2)CC1 (configuration not stated) : call = ?
stdout: No

stdin: Field: outcome | Entry: O=C(COc1ccc(Br)cc1Cl)c1ccc[nH]1
stdout: Yes

stdin: What is the recorded call for this molecule in the test? CN(C(=O)COC(=O)c1sc2ccccc2c1Cl)C1CCCCC1
stdout: No

stdin: Please state the recorded outcome for this molecule: CCOC(=O)C1CCN(CC(O)COc2ccc(C(C)(C)C)cc2)CC1 (configuration not stated)
stdout: Yes

stdin: Which outcome was entered for the molecule c1ccc(Nc2c3c(nc4ccccc24)CCC3)cc1 in this test?
stdout: No

stdin: GET /call?item= Cc1ccc(NC(=O)CN2CCc3ccccc3C2)cc1F returns the recorded outcome of this test.
stdout: No

* * *

# TEST SYSTEM: Short transient receptor potential channel 4 (Mus musculus) (UniProt Q9QUQ5)
# Sequence (Q9QUQ5 whole entry, looked up): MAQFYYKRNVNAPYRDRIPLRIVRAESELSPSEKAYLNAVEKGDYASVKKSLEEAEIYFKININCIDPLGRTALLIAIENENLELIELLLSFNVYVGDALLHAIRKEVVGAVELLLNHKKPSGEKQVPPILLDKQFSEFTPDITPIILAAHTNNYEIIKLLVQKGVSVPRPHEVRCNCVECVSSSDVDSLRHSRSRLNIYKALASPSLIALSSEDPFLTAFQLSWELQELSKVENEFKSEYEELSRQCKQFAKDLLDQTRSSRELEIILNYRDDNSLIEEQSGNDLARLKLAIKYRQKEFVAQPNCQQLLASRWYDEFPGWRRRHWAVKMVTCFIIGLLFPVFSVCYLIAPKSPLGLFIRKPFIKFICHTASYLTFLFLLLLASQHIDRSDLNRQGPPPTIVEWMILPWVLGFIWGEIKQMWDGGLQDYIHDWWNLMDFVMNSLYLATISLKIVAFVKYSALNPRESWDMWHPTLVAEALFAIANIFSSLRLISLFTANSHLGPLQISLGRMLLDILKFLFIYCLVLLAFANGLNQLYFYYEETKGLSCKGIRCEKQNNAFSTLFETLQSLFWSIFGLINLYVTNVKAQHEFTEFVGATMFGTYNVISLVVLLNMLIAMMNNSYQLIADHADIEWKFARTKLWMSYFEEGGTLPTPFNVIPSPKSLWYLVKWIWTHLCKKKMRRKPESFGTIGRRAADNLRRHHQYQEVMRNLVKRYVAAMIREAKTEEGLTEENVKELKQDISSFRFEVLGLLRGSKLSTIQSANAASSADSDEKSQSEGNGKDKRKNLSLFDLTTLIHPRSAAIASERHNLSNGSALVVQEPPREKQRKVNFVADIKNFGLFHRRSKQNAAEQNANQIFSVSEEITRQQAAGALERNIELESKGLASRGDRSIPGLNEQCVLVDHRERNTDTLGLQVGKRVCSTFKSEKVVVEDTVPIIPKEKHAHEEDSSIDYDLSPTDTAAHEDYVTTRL
# PROCEDURE TEXT: blockers of DAMGO-evoked TRPC4 calcium flux – cell-based, Fluo4, HEK293 TRPC4beta/mu-opioid, confirmation (AID 2636)
# CONDITIONS USED: at 10 µM
Active and inactive are the calls of the source.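 How the source made its calls: active means calcium signal cut by more than 3 SD below the full-agonist control yet still positive, in both repeats and the earlier primary screen; inactive means the rest.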
Just give me one of these, please: true (1) (active), false (0) (inactive)

stdin: Per the assay record, what outcome was assigned to Cc1c(C(=O)NCC(c2ccco2)N(C)C)oc2c(Cl)cccc12 (stereo not given) ?
stdout: true (1)

* * *

# TEST SYSTEM: Short transient receptor potential channel 4 (Mus musculus) (UniProt Q9QUQ5)
# PROCEDURE TEXT: blockers of DAMGO-evoked TRPC4 calcium flux – cell-based, Fluo4, HEK293 TRPC4beta/mu-opioid, confirmation (AID 2636)
# CONDITIONS USED: at 10 µM
Active and inactive are the calls of the source.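 The calls were made as follows: active = calcium signal cut by more than 3 SD below the full-agonist control yet still positive, in both repeats and the earlier primary screen; inactive = the rest.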
Your reply should match one of these outcome classes. t (active), f (inactive)

{"columns": ["MOLECULE", "CAT"],
 "data": [
  ["CCCCOc1ccc(CSC(=N)N)cc1[N+](=O)[O-]", "f"],
  ["COc1cccc(OCc2cc(C(=O)N3CCN(C)C(c4ccccc4)C3)no2)c1 (centres undefined)", "f"],
  ["COc1cc(CNC2CCCCCCC2)cc(Br)c1OCC#N", "f"],
  ["O=C(CCCSc1nc2ccccc2[nH]1)NCc1ccccc1Cl", "t"],
  ["COCCNC(=O)/C(C#N)=C/c1cc(C(C)C)c(OC)cc1C", "f"],
  ["CN(C)C(CNC(=O)CCc1nc2ccccc2s1)c1ccccc1 (centres undefined)", "t"],
  ["CCCC1(c2ccccc2)NC(=O)N(CC(=O)c2[nH]c(C)c(C(=O)OCC)c2C)C1=O (centres undefined)", "f"],
  ["O=[N+]([O-])c1cccc(CSc2nnc(Cc3ccccc3)n2-c2ccc(F)cc2)c1", "f"]
]}

We now examine a further molecule.
stdin: Identify the outcome logged in this assay for the molecule shown: O=c1[nH]ncc(N2CCN(Cc3ccccc3)CC2)c1Cl
stdout: f
